Numbers sourced from patent US20260069689A1.

- testedSystem: T1, SARS-CoV2 Spike ecto foldon Trimer expressed with a C-terminal myc-myc-hexahistidine (SARS-CoV-2, UniProt P0DTC2 14-1213)
- T1 construct: extracellular domain
- experimentNotes: SPR Biacore, mAb captured by anti-hFc, 25C
endpointLabel: koff (s⁻¹)
Give bare numbers, in s⁻¹.

Record excerpt, results attached:
| binder | readingUnit | koff |
| --- | --- | --- |
| mAb13459 (antibody, V domains shown) VH: EVQLVESGGGLVQPGRSLRLSCAASGFTFDDYAMHWVRQAPGKGLEWVSGISWNSGSIGYADSVKGRFTISRDNAKNSLYLQMNSLRAEDTALYYCAKDIGITTPYWGQGTLVTVSS VL: AIQMTQSPSSLSASVGDRVTITCRASQDIRNDLGWYQQKPGKAPKLLIYSASSLQTGVPSRFSGSGSGTDFTLTISSLHPEDFATYYCLQDYNYVWTFGQGTKVEIKR | s⁻¹ | 5.46e-05 |
| mAb15163 (antibody, V domains shown) VH: EVQLVETGGGLIQPGESLRLSCAASGFIVSTNYMNWVRQAPGKGLEWVSVIYRGGSTYYADSVKGRFTISRDNSKNTLFLQMNSLRAEDTAVYYCARGHEDFDYDTPASGAFDIWGQGTMVTVSS VL: QSALTQPPSASGSPGQSVTISCTGTSSDVGGHNYVSWYQQHPGKAPKVMIYEVSKRPSGVPDRFSGSKSGNTASLTVSGLQAEDEADYYCSSYAGSNKFVFGTGTKVTVLG | s⁻¹ | 1.15e-05 |

Now take the following binder into account.
Fill in reported koff for this entry: mAb14289 (antibody, V domains shown) VH: QVQLVQSGPEVKKPGASVKVSCKASGYTFTSYAISWVRQAPGQGLEWMGWISAYNGNTNYAQKLQGRVTMTTDTFTSTAYMELRSLRSDDTAVYYCAVPADHITFDYWGQGTLVTVSS VL: EIVLTQSPGTLSLSPGERATLSCRASQSVSSYLAWYQQKPGQAPRLLIHGASSRATGIPDRFSGSGSGTDFTLTISRLEPEDFAVYYCQQYGSSFLTFGGGTKVEIKR
6.35e-05
